target: T1, full-length trimeric SARS-CoV-2 Spike protein (Spike-H6) (SARS-CoV-2, N-glycosylated (22 N-glycosylation sites)); assay: ELISA screen
T1 construct: also called trimeric Spike; full-length Spike-H6
Provide the recorded Mean normalized OD for the entries that follow.
Write the number in OD without appending the unit.

The binder identified as Siglec15 CRD-mouse IgG2a-Fc fusion protein (Fc fusion) PAQRWSMQVPAEVNAEAGDAAVLPCTFTHPHRHYDGPLTAIWRSGEPYAGPQVFRCTAAPGSELCQTALSLHGRFRLLGNPRRNDLSLRVERLALADSGRYFCRVEFTGDAHDRYESRHGGGSGGGSGGGS registered its Mean normalized OD at 0.008

The binder identified as Reg3b CRD-mouse IgG2a-Fc fusion protein (Fc fusion) YGSYCYALFQIPQTWFDAELACQKRPGGHLVSVLNSAEASFLSSMVKRTGNSYQYTWIGLHDPTLGAEPNGGGWEWSNNDVMNYFNWERNPSTALDRAFCGSLSRASGFLKWRDMTCEVKLPYVCKGGGSGGGSGGGS registered its Mean normalized OD at 0.005

The binder identified as Pla2r1_5 CRD-mouse IgG2a-Fc fusion protein (Fc fusion) YQNAEYLFHTHPAEWATFEFVCGWLRSDFLTIYSAQEQEFIHSKIKGLTKYGVKWWIGLEEGGARDQIQWSNGSPVIFQNWDKGREERVDSQRKRCVFISSITGLWGTENCSVPLPSICKGGGSGGGSGGGS registered its Mean normalized OD at 0.029

The binder identified as Mrc1_5 CRD-mouse IgG2a-Fc fusion protein (Fc fusion) YKDYQYYFSKEKETMDNARAFCKKNFGDLATIKSESEKKFLWKYINKNGGQSPYFIGMLISMDKKFIWMDGSKVDFVAWATGEPNFANDDENCVTMYTNSGFWNDINCGYPNNFICQGGGSGGGSGGGS registered its Mean normalized OD at -0.001
